assay: Toxicology study of VD in rats: 5-day continuous subcutaneous infusion by Alzet minipumps, plasma VD by radioimmunoassay, clinical observations; assay type: in vivo; details: Sprague Dawley, rat, in vivo, sc, 3.6 mg; male rats N=3, 3.60 mg, 120 hours post-dosing; read-out: Mean concentration of vessel dilator in plasma
Ends that are not written are not given here.
propertyMeasured: level at 120 h (µg/mL)
State just the number; it will be interpreted in µg/mL.

Query: Name the reported level at 120 h value associated with the sequence EVVPPQVLSEPNEEAGAALSPLPEVPPWTGEVSPAQR [VD, Vessel Dilator]
Response: 0.261

---

test: Toxicology study of VD in rats: 5-day continuous subcutaneous infusion by Alzet minipumps, plasma VD by radioimmunoassay, clinical observations; assay type: in vivo; conditions: Sprague Dawley, rat, in vivo, sc, 1.8 mg; male rats N=3, 1.80 mg, 120 hours post-dosing; read-out: Mean concentration of vessel dilator in plasma
Ends that are not written are not given here.
propertyMeasured: level at 120 h (ng/mL)
State just the number; it will be interpreted in ng/mL.

Query: Name the reported level at 120 h value associated with the sequence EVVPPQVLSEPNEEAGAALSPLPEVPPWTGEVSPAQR [VD, Vessel Dilator]
Response: 214
